Parameter: IC50. Scope: all listed entries.
target: α4β7 integrin (Homo sapiens (Human), UniProt P13612+P26010); test: MAdCAM-1/α4β7 integrin binding inhibitory activity evaluation test in the presence of serum (1); format: cell-based; details: RPMI-8866 cells binding to mouse MAdCAM-1/Fc, human serum at final concentration of 50%; read-out: α4β7 with serum added, IC50
Sequence (P13612 34-1032): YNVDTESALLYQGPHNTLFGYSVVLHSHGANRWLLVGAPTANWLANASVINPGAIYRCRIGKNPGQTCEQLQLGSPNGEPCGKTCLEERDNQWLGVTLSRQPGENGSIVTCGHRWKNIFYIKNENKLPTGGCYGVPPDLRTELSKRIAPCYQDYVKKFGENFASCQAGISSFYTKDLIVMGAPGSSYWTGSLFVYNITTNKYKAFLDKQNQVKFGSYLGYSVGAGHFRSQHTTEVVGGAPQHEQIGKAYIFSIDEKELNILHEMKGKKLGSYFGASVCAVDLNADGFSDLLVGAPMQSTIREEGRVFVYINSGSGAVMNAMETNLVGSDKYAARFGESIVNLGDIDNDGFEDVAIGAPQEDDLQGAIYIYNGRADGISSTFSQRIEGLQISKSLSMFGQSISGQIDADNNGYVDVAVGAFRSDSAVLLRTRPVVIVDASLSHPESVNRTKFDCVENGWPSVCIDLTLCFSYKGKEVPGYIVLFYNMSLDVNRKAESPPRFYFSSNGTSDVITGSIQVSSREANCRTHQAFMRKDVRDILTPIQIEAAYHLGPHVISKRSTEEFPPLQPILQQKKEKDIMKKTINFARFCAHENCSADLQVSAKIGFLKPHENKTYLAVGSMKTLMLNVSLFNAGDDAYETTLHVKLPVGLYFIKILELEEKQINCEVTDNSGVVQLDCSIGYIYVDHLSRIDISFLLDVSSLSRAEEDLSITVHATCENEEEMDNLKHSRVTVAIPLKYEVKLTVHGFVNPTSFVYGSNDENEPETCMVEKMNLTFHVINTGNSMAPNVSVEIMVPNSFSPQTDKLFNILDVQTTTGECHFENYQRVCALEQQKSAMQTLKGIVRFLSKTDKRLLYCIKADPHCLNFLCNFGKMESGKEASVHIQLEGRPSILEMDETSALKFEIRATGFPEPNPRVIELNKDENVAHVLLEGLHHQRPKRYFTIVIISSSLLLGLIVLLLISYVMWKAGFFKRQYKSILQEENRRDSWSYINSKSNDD
Sequence (P26010 20-798): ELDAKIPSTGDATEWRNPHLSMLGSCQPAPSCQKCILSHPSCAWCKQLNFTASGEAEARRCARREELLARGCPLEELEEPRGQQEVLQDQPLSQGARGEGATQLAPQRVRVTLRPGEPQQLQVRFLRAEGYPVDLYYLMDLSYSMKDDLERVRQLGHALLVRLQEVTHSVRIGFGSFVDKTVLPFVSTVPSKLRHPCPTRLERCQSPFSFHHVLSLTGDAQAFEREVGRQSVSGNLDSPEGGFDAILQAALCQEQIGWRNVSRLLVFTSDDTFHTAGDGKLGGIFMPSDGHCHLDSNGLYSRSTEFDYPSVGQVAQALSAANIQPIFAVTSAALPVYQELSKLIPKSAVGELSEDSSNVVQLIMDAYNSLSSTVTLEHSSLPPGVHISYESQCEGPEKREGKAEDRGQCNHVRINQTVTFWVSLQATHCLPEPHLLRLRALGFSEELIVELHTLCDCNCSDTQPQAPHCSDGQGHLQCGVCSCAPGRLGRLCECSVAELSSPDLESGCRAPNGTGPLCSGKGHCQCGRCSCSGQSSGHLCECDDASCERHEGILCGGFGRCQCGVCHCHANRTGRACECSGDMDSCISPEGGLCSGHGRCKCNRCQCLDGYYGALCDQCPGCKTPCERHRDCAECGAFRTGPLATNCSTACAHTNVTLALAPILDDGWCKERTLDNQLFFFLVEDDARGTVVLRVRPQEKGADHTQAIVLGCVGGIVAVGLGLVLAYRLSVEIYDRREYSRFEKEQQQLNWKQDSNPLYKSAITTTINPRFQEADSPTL
PARAMETER: IC50 (nM)

>>> reported_measurement("Cn1ccc(=O)n(-c2ccc(C[C@H](NC(=O)c3c(F)cc(NS(=O)(=O)c4ccc(-c5ncccn5)cn4)cc3F)C(=O)O)cc2)c1=O [Example 40]")
8.7
>>> reported_measurement("CNCc1ccc(S(=O)(=O)Nc2ccc(C(=O)N[C@@H](Cc3ccc(-n4c(=O)c5ccncc5n(C)c4=O)cc3)C(=O)O)c(F)c2)cc1 [Example 52]")
13
>>> reported_measurement("Cn1cnc2c1c(=O)n(-c1ccc(C[C@H](NC(=O)c3c(F)cc(NS(=O)(=O)c4ccc(-c5ccncc5)cc4)cc3F)C(=O)O)cc1)c(=O)n2C [Example 75]")
4.2
>>> reported_measurement("CCNC(=O)c1ccc(S(=O)(=O)Nc2cc(F)c(C(=O)N[C@@H](Cc3ccc(-n4c(=O)ccn(C)c4=O)cc3)C(=O)O)c(F)c2)cc1 [Example 44]")
16
>>> reported_measurement("Cn1cnc2c1c(=O)n(-c1ccc(C[C@H](NC(=O)c3c(F)cc(NS(=O)(=O)c4ccc(-c5ncccn5)cc4)cc3F)C(=O)O)cc1)c(=O)n2C [Example 77]")
9.1

###

target: α4β7 integrin (Homo sapiens (Human), UniProt P13612+P26010); assay: MAdCAM-1/α4β7 integrin binding inhibitory activity evaluation test (RPMI-8866 cell adhesion to MAdCAM-1/Fc); format: cell-based; conditions: IC50 in VCAM-1/α4β1 test divided by IC50 in MAdCAM-1/α4β7 test
# reported Selectivity; entries follow
PARAMETER: Selectivity

>>> reported_measurement("Cn1ccc(=O)n(-c2ccc(C[C@H](NC(=O)c3c(F)cc(NS(=O)(=O)c4ccc(-n5nccn5)cn4)cc3F)C(=O)O)cc2)c1=O")
250
>>> reported_measurement("Cn1c(=O)n(-c2ccc(C[C@H](NC(=O)c3c(F)cc(NS(=O)(=O)c4ccc(-n5cccc5)cc4)cc3F)C(=O)O)cc2)c(=O)c2ccncc21")
240
>>> reported_measurement("Cc1ccc(-c2ccc(S(=O)(=O)Nc3cc(F)c(C(=O)N[C@@H](Cc4ccc(-n5c(=O)c6ccncc6n(C)c5=O)cc4)C(=O)O)c(F)c3)cc2)cn1")
560
>>> reported_measurement("Cn1c(=O)n(-c2ccc(C[C@H](NC(=O)c3c(F)cc(NS(=O)(=O)c4ccc(-c5cncnc5)cn4)cc3F)C(=O)O)cc2)c(=O)c2ccncc21")
230
>>> reported_measurement("Cc1cc(-c2ccc(S(=O)(=O)Nc3cc(F)c(C(=O)N[C@@H](Cc4ccc(-n5c(=O)c6ccncc6n(C)c5=O)cc4)C(=O)O)c(F)c3)cc2)cc(C)n1")
660

###

Catalogue of IC50 values
target: α4β7 integrin (Homo sapiens (Human), UniProt P13612+P26010); experiment: MAdCAM-1/α4β7 integrin binding inhibitory activity evaluation test in the presence of serum (2); type: cell-based; settings: RPMI-8866 cells binding to mouse MAdCAM-1/Fc, same manner as Test (3), read-out: α4β7 Rank of activity with serum added
PARAMETER: IC50

>>> reported_measurement("CCNC(=O)c1ccc(S(=O)(=O)Nc2cc(F)c(C(=O)N[C@@H](Cc3ccc(-n4c(=O)cc(C(C)C)n(C)c4=O)cc3)C(=O)O)c(F)c2)cc1")
"10 to 50 nM"
>>> reported_measurement("Cn1ccc(=O)n(-c2ccc(C[C@H](NC(=O)c3cc(F)c(NS(=O)(=O)c4ccc(-c5cncnc5)cc4)cc3F)C(=O)O)cc2)c1=O")
"10 to 50 nM"
>>> reported_measurement("Cc1cc(CNC2CCCC2)ccc1S(=O)(=O)Nc1ccc(C(=O)N[C@@H](Cc2ccc(-n3c(=O)c4ccncc4n(C)c3=O)cc2)C(=O)O)c(F)c1")
"10 to 50 nM"
>>> reported_measurement("Cn1ccc(=O)n(-c2ccc(C[C@H](NC(=O)c3c(F)cc(NS(=O)(=O)c4ccc(C(=O)C5CC5)cc4)cc3F)C(=O)O)cc2)c1=O")
"10 to 50 nM"
>>> reported_measurement("Cn1c(=O)n(-c2ccc(C[C@H](NC(=O)c3cc(F)c(NS(=O)(=O)c4ccccc4)cc3F)C(=O)O)nc2)c(=O)c2ccncc21")
"50 to 200 nM"
>>> reported_measurement("Cn1c(=O)n(-c2ccc(C[C@H](NC(=O)c3cc(F)c(NS(=O)(=O)c4ccc(-n5cncn5)cc4)cc3F)C(=O)O)nc2)c(=O)c2ccncc21")
"10 to 50 nM"
>>> reported_measurement("Cn1c(=O)n(-c2ccc(C[C@H](NC(=O)c3cc(F)c(NS(=O)(=O)c4cccs4)cc3F)C(=O)O)cc2)c(=O)c2ccncc21")
"10 to 50 nM"
>>> reported_measurement("Cn1c(=O)n(-c2ccc(C[C@H](NC(=O)c3cc(F)c(NS(=O)(=O)c4ccc(-c5cncnc5)cn4)cc3F)C(=O)O)nc2)c(=O)c2ccncc21")
"10 to 50 nM"
>>> reported_measurement("Cn1c(=O)n(-c2ccc(C[C@H](NC(=O)c3cc(F)c(NS(=O)(=O)c4ccco4)cc3F)C(=O)O)cc2)c(=O)c2ccncc21")
"10 to 50 nM"
>>> reported_measurement("Cn1c(=O)n(-c2ccc(C[C@H](NC(=O)c3ccc(NS(=O)(=O)c4ccc[nH]4)cc3F)C(=O)O)nc2)c(=O)c2ccncc21")
"10 to 50 nM"
>>> reported_measurement("Cn1ccc(=O)n(-c2ccc(C[C@H](NC(=O)c3c(F)cc(NS(=O)(=O)c4ccc(C(=O)NC5CCCCC5)cc4)cc3F)C(=O)O)cc2)c1=O")
"10 to 50 nM"
>>> reported_measurement("CCOc1ccccc1S(=O)(=O)Nc1cc(F)c(C(=O)N[C@@H](Cc2ccc(-n3c(=O)c4ccncc4n(C)c3=O)cn2)C(=O)O)c(F)c1")
"10 to 50 nM"
>>> reported_measurement("CCOc1cc(-c2ncccn2)ccc1S(=O)(=O)Nc1cc(F)c(C(=O)N[C@@H](Cc2ccc(-n3c(=O)c4ccncc4n(C)c3=O)cn2)C(=O)O)c(F)c1")
"≤ 10 nM"

###

biological target: α4β1 integrin (Homo sapiens (Human), UniProt P05556+P13612); experiment: VCAM-1/α4β1 integrin binding inhibitory activity evaluation test (Jurkat cell adhesion to VCAM-1/Fc); settings: Jurkat cells binding to recombinant human VCAM-1/Fc
Sequence (P13612 34-1032): as the sequence (P13612 34-1032) above
Sequence (P05556 21-798): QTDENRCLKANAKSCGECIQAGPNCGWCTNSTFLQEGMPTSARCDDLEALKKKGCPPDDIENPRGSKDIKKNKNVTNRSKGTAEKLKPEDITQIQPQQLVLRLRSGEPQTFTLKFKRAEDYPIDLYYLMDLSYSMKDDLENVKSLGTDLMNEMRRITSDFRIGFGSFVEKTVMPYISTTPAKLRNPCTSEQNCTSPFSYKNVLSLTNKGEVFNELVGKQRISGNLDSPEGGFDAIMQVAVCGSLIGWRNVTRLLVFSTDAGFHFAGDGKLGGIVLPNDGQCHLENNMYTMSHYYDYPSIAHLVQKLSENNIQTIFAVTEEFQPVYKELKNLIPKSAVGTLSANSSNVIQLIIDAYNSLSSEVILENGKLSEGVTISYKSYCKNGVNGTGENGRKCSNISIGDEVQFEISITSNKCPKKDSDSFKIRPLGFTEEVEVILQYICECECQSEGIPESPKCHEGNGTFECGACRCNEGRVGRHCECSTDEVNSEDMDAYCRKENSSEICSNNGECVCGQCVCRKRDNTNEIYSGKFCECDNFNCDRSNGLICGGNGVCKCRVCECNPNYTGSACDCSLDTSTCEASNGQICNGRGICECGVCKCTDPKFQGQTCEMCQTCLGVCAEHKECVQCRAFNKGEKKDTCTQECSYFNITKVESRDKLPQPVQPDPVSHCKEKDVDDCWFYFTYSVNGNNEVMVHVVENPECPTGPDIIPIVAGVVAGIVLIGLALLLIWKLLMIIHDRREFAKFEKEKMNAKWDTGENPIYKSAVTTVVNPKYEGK
pIC50: −log10 of the molar value.
Item-by-item account of pIC50
PARAMETER: pIC50

>>> reported_measurement("Cn1c(=O)n(-c2ccc(C[C@H](NC(=O)c3c(F)cc(NS(=O)(=O)c4ccc(-c5ccncc5)cc4)cc3F)C(=O)O)cc2)c(=O)c2ccncc21")
6.68
>>> reported_measurement("Cn1cnc2c1c(=O)n(-c1ccc(C[C@H](NC(=O)c3c(F)cc(NS(=O)(=O)c4ccc(-n5cccc5)cc4)cc3F)C(=O)O)cc1)c(=O)n2C")
6.04
>>> reported_measurement("Cn1ccc(=O)n(-c2ccc(C[C@H](NC(=O)c3c(F)cc(NS(=O)(=O)c4ccc(-c5ncccn5)cn4)cc3F)C(=O)O)cc2)c1=O")
6.68
>>> reported_measurement("Cn1c(=O)n(-c2ccc(C[C@H](NC(=O)c3c(F)cc(NS(=O)(=O)c4ccc(-c5ccnc(F)c5)cc4)cc3F)C(=O)O)cc2)c(=O)c2ccncc21")
6.92
>>> reported_measurement("Cn1c(=O)n(-c2ccc(C[C@H](NC(=O)c3c(F)cc(NS(=O)(=O)c4ccc(-n5cncn5)cn4)cc3F)C(=O)O)cc2)c(=O)c2ccncc21")
7.89
>>> reported_measurement("Cn1c(=O)n(-c2ccc(C[C@H](NC(=O)c3c(F)cc(NS(=O)(=O)c4ccc(-c5nccs5)cn4)cc3F)C(=O)O)cc2)c(=O)c2ccncc21")
7.66
>>> reported_measurement("Cn1c(=O)n(-c2ccc(C[C@H](NC(=O)c3c(F)cc(NS(=O)(=O)c4ccc(-n5cncn5)nc4)cc3F)C(=O)O)cc2)c(=O)c2ccncc21")
7.35
>>> reported_measurement("Cc1cc(-c2ccc(S(=O)(=O)Nc3cc(F)c(C(=O)N[C@@H](Cc4ccc(-n5c(=O)c6ccncc6n(C)c5=O)cc4)C(=O)O)c(F)c3)cc2)cc(C)n1")
6.57
>>> reported_measurement("CNCc1ccc(S(=O)(=O)Nc2ccc(C(=O)N[C@@H](Cc3ccc(-n4c(=O)c5ccncc5n(C)c4=O)cc3)C(=O)O)c(F)c2)cc1")
6.26
>>> reported_measurement("Cn1ccc(=O)n(-c2ccc(C[C@H](NC(=O)c3c(F)cc(NS(=O)(=O)c4ccc(-c5cncnc5)cn4)cc3F)C(=O)O)cc2)c1=O")
6.32
>>> reported_measurement("Cn1c(=O)n(-c2ccc(C[C@H](NC(=O)c3c(F)cc(NS(=O)(=O)c4ccc(-c5ccoc5)cc4)cc3F)C(=O)O)cc2)c(=O)c2ccncc21")
6.55
>>> reported_measurement("Cn1c(=O)n(-c2ccc(C[C@H](NC(=O)c3c(F)cc(NS(=O)(=O)c4ccc(-c5ccncc5)nc4)cc3F)C(=O)O)cc2)c(=O)c2ccncc21")
7.28
>>> reported_measurement("Cn1c(=O)n(-c2ccc(C[C@H](NC(=O)c3c(F)cc(NS(=O)(=O)c4ccc(-c5cncnc5)cn4)cc3F)C(=O)O)cc2)c(=O)c2ccncc21")
7.74
>>> reported_measurement("Cn1c(=O)n(-c2ccc(C[C@H](NC(=O)c3c(F)cc(NS(=O)(=O)c4ccc(C5=CCNCC5)cc4)cc3F)C(=O)O)cc2)c(=O)c2ccncc21")
7.51
>>> reported_measurement("COc1ccc2c(c1)c(=O)n(-c1ccc(C[C@H](NC(=O)c3c(F)cc(NS(=O)(=O)c4ccc(C(=O)NC5CC5)cc4)cc3F)C(=O)O)cc1)c(=O)n2C")
6.43
>>> reported_measurement("CCNC(=O)c1ccc(S(=O)(=O)Nc2cc(F)c(C(=O)N[C@@H](Cc3ccc(-n4c(=O)ccn(C)c4=O)cc3)C(=O)O)c(F)c2)cc1")
6.80
